- PROCEDURE_DETAILS: Caco-2 cell permeability
- ASSAY_CONDITIONS: human
# Papp A→B values compiled below
Entry rule: numbers only, all in ×10⁻⁶ cm/s.

Answered examples (3):
C[C@@H]1CN(c2ccc3nccc(C(=O)NCC(=O)N4CSC[C@H]4C#N)c3c2)CCO1 = 1.3
CC1(C)Cc2c(-c3ccc4nccc(C(=O)NCC(=O)N5CSC[C@H]5C#N)c4c3)cnn2C1 = 0.17
N#C[C@@H]1CSCN1C(=O)CNC(=O)c1ccnc2ccc(-c3ccnc(F)c3)cc12 = 0.65

**Query** Output Papp A→B of `COC[C@@H]1[C@@H](C)OCCN1c1ccc2nccc(C(=O)NCC(=O)N3CSC[C@H]3C#N)c2c1`
**Result** 0.52

**Query** Output Papp A→B of `N#C[C@@H]1CSCN1C(=O)CNC(=O)c1ccnc2ccc(N3CCCCC3)cc12`
**Result** 8.7
